target: hOTR (Homo sapiens, UniProt P30559); construct: expressed in transfected cells; assay: IP-One accumulation assay, agonist function, HEK293 cells expressing hOTR; assay type: cell-based; details: HEK293, relative to the effect of OT; read-out: OTR Emax ± SEM
Sequence (P30559 whole entry): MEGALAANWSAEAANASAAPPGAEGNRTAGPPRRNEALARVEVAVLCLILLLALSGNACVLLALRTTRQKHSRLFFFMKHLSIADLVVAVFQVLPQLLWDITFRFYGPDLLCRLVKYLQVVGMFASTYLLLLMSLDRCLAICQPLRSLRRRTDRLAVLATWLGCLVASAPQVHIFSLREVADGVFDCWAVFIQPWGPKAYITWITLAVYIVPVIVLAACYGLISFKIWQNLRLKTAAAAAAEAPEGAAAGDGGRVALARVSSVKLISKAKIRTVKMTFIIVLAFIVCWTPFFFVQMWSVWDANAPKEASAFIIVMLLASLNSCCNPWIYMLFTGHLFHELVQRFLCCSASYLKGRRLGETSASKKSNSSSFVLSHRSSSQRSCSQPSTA
Numbered stars: 1 amine (or outer) side, 2 acyl side, 3 side chain; on linkers, the order of the positions; unused ones are H or OH. Bridge positions count the residues as written; N and C are the ends. Square brackets hold non-standard residues; d marks the D form. Peptide text beside a SMILES is read from it. AMPB(E) = O=C(c1ccc(/N=N/c2ccc(CN[*:1])cc2)cc1)[*:2]; X2 = O=C(c1ccc(/N=N\c2ccc(CN[*:1])cc2)cc1)[*:2]

- molecule: "CC[C@H](C)[C@@H]1NC(=O)[C@H](Cc2ccc(O)cc2)NC(=O)[C@@H](N)CSSC[C@@H](C(=O)NCc2ccc(/N=N/c3ccc(C(=O)N[C@@H](CC(C)C)C(=O)NCC(N)=O)cc3)cc2)NC(=O)[C@H](CC(N)=O)NC(=O)[C@H](CCC(N)=O)NC1=O [E-11] (H-CYIQNC[AMPB(E)]LG-NH2; disulfide 1-6)"
  subject-of-test: "hOTR (Homo sapiens, UniProt P30559)"
  Emax [%]: 75
- molecule: "CC[C@H](C)[C@@H]1NC(=O)[C@H](Cc2ccc(O)cc2)NC(=O)[C@@H](N)CSSC[C@@H](C(=O)NCc2ccc(/N=N\\c3ccc(C(=O)NCC(N)=O)cc3)cc2)NC(=O)[C@H](CC(N)=O)NC(=O)[C@H](CCC(N)=O)NC1=O [Z-10] (H-CYIQNC[X2]G-NH2; disulfide 1-6)"
  subject-of-test: "hOTR (Homo sapiens, UniProt P30559)"
  Emax [%]: 92

###

target: hOTR (Homo sapiens); construct: expressed in transfected cells; assay: IP-One accumulation assay, agonist function, HEK293 cells expressing hOTR; format: cell-based; details: IP-One, stable HEK293 hOTR; E = thermal equilibrium, Z = PSS after 340 nm; read-out: OTR EC50 ± SEM
pEC50: −log10 of the molar value. Numbered stars: 1 amine (or outer) side, 2 acyl side, 3 side chain; on linkers, the order of the positions; unused ones are H or OH. Bridge positions count the residues as written; N and C are the ends. Square brackets hold non-standard residues; d marks the D form. Peptide text beside a SMILES is read from it. Phe(4-(Z)-phenylazo) = N[C@@H](Cc1ccc(/N=N\c2ccccc2)cc1)C(=O)O; AMPB(E) = O=C(c1ccc(/N=N/c2ccc(CN[*:1])cc2)cc1)[*:2]; X1 = O=C([C@H](Cc1ccc(/N=N/c2ccccc2)cc1)N[*:1])[*:2]; X2 = O=C(c1ccc(/N=N\c2ccc(CN[*:1])cc2)cc1)[*:2]
pEC50 below 6 gives criterion not met; pEC50 at or above it gives criterion met.

- compound: "CC[C@H](C)[C@@H]1NC(=O)[C@H](Cc2ccc(/N=N/c3ccccc3)cc2)NC(=O)[C@@H](N)CSSC[C@@H](C(=O)N2CCC[C@H]2C(=O)N[C@@H](CC(C)C)C(=O)NCC(N)=O)NC(=O)[C@H](CC(N)=O)NC(=O)[C@H](CCC(N)=O)NC1=O [E-8] (H-C[X1]IQNCPLG-NH2; disulfide 1-6)"
  group: "criterion not met"
- compound: "CC[C@H](C)[C@@H]1NC(=O)[C@H](Cc2ccc(O)cc2)NC(=O)[C@@H](N)CSSC[C@@H](C(=O)NCc2ccc(/N=N\\c3ccc(C(=O)N[C@@H](CC(C)C)C(=O)NCC(N)=O)cc3)cc2)NC(=O)[C@H](CC(N)=O)NC(=O)[C@H](CCC(N)=O)NC1=O [Z-11] (H-CYIQNC[X2]LG-NH2; disulfide 1-6)"
  group: "criterion met"
- compound: "CC[C@H](C)[C@@H]1NC(=O)[C@H](Cc2ccc(/N=N\\c3ccccc3)cc2)NC(=O)[C@@H](N)CSSC[C@@H](C(=O)N2CCC[C@H]2C(=O)N[C@@H](CC(C)C)C(=O)NCC(N)=O)NC(=O)[C@H](CC(N)=O)NC(=O)[C@H](CCC(N)=O)NC1=O [Z-8] (H-C[Phe(4-(Z)-phenylazo)]IQNCPLG-NH2; disulfide 1-6)"
  group: "criterion not met"
- compound: "CC[C@H](C)[C@@H]1NC(=O)[C@H](Cc2ccc(O)cc2)NC(=O)[C@@H](N)CSSC[C@@H](C(=O)NCc2ccc(/N=N\\c3ccc(C(=O)NCC(N)=O)cc3)cc2)NC(=O)[C@H](CC(N)=O)NC(=O)[C@H](CCC(N)=O)NC1=O [Z-10] (H-CYIQNC[X2]G-NH2; disulfide 1-6)"
  group: "criterion met"
- compound: "CC[C@H](C)[C@@H]1NC(=O)[C@H](Cc2ccc(O)cc2)NC(=O)[C@@H](N)CSSC[C@@H](C(=O)NCc2ccc(/N=N/c3ccc(C(=O)N[C@@H](CC(C)C)C(=O)NCC(N)=O)cc3)cc2)NC(=O)[C@H](CC(N)=O)NC(=O)[C@H](CCC(N)=O)NC1=O [E-11] (H-CYIQNC[AMPB(E)]LG-NH2; disulfide 1-6)"
  group: "criterion met"
- compound: "CC[C@H](C)[C@@H]1NC(=O)[C@H](Cc2ccc(O)cc2)NC(=O)[C@@H](N)CSSC[C@@H](C(=O)NCc2ccc(/N=N/c3ccc(C(=O)NCC(N)=O)cc3)cc2)NC(=O)[C@H](CC(N)=O)NC(=O)[C@H](CCC(N)=O)NC1=O [E-10] (H-CYIQNC[AMPB(E)]G-NH2; disulfide 1-6)"
  group: "criterion met"
- compound: "CC[C@H](C)[C@@H]1NC(=O)[C@H](Cc2ccc(O)cc2)NC(=O)[C@@H](N)CSSC[C@@H](C(=O)N[C@@H](Cc2ccc(/N=N\\c3ccccc3)cc2)C(=O)N[C@@H](CC(C)C)C(=O)NCC(N)=O)NC(=O)[C@H](CC(N)=O)NC(=O)[C@H](CCC(N)=O)NC1=O [Z-9] (H-CYIQNC[Phe(4-(Z)-phenylazo)]LG-NH2; disulfide 1-6)"
  group: "criterion met"
- compound: "CC[C@H](C)[C@@H]1NC(=O)[C@H](Cc2ccc(O)cc2)NC(=O)[C@@H](N)CSSC[C@@H](C(=O)N[C@@H](Cc2ccc(/N=N/c3ccccc3)cc2)C(=O)N[C@@H](CC(C)C)C(=O)NCC(N)=O)NC(=O)[C@H](CC(N)=O)NC(=O)[C@H](CCC(N)=O)NC1=O [E-9] (H-CYIQNC[X1]LG-NH2; disulfide 1-6)"
  group: "criterion met"
